Protocol Details: Fraction unbound in cynomolgus monkey plasma by equilibrium dialysis based LC-MS analysis
Type: ADME, cell-free, Macaca fascicularis

{"Smiles Structure": "COc1nc(N(CC(C)(C)F)c2cc(Cl)c(F)cc2F)cnc1C(=O)[C@H]1C[C@@H]1C(=O)O", "fraction unbound": 0.03}

----------
Listed here are molecules together with their documented fraction unbound.
Protocol Details: Fraction unbound in Sprague-Dawley rat plasma by equilibrium dialysis based LC-MS analysis
Assay type: ADME, cell-free
Metric: fraction unbound

{"Smiles Structure": "COc1nc(N(CC(C)(C)F)c2cc(Cl)c(F)cc2F)cnc1C(=O)[C@H]1C[C@@H]1C(=O)O", "Observed Measurement": 0.025}
{"Smiles Structure": "COc1cc(N(CC2CC2)c2ccc(Cl)c3ccccc23)cnc1C(=O)[C@H]1C[C@@H]1C(=O)O", "Observed Measurement": 0.0062}

----------
Protocol Details: Thermodynamic solubility of compound in pH 7.4 PBS at 1 mg/ml incubated for 24 hrs under shaking condition by LC-MS/MS analysis
Assay type: physicochemical
Measurement Context: read-out: Therm_solubility

{"Compound": "COc1cc(N(CC2CC2)c2ccc(Cl)c3ccccc23)cnc1C(=O)[C@H]1C[C@@H]1C(=O)O", "solubility thermodynamic at 24 h [µM]": 576}
{"Compound": "COc1nc(N(CC(C)(C)F)c2cc(Cl)c(F)cc2F)cnc1C(=O)[C@H]1C[C@@H]1C(=O)O [AZD-9898]", "solubility thermodynamic at 24 h [µM]": 2080}

----------
Protocol Details: Cmax in po dosed rat at LOAEL measured after 7 days
Format: ADME, organism-based
Design: route oral
Measurement Context: in vivo

{"Smiles Structure": "COc1cc(N(CC2CC2)c2ccc(Cl)c3ccccc23)cnc1C(=O)[C@H]1C[C@@H]1C(=O)O", "Cmax at […] [µM]": 144}

----------
Assayed System: Cytochrome P450 2D6 (Homo sapiens, UniProt P10635)
Sequence (P10635 whole entry): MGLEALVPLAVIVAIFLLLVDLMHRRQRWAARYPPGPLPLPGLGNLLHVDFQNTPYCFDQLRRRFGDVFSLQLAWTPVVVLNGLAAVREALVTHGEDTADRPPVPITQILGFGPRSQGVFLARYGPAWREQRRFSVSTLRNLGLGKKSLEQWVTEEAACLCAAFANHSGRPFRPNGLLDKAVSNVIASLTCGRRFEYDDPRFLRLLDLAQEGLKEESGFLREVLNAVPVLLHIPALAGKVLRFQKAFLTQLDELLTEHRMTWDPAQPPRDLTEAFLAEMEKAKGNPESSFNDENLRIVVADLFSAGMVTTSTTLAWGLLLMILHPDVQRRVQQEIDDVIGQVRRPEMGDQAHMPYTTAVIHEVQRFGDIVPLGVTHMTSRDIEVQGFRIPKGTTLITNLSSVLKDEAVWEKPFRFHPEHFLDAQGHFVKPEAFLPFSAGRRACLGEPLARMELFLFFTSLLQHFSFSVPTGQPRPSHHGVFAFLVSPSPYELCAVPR
Protocol Details: Inhibition of recombinant human CYP2D6 using coumarin based substrate by fluorescence assay

{"Compound": "COc1nc(N(CC(C)(C)F)c2cc(Cl)c(F)cc2F)cnc1C(=O)[C@H]1C[C@@H]1C(=O)O [AZD-9898]", "IC50": "> 30 µM"}
{"Compound": "COc1cc(N(CC2CC2)c2ccc(Cl)c3ccccc23)cnc1C(=O)[C@H]1C[C@@H]1C(=O)O", "IC50": "> 20 µM"}

----------
Listed here are compounds together with their documented IC50.
Assayed System: Cytochrome P450 2C9 (Homo sapiens, UniProt P11712)
Sequence (P11712 whole entry): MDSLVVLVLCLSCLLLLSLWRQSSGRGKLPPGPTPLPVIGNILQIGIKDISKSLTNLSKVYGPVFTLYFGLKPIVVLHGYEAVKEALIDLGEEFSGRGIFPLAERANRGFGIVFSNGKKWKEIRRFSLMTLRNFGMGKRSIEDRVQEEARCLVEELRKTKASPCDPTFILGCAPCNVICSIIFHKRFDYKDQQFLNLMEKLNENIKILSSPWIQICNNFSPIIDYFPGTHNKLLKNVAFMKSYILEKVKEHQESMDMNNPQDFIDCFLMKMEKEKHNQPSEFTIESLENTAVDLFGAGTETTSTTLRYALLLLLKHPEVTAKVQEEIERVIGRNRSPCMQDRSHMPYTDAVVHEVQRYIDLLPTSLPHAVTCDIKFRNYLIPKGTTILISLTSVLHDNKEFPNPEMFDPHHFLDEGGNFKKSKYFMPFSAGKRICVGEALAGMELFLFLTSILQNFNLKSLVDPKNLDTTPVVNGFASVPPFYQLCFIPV
Protocol Details: Inhibition of recombinant human CYP2C9 expressed in Escherichia coli using coumarin based substrate by fluorescence assay
Metric: IC50

{"Compound": "COc1cc(N(CC2CC2)c2ccc(Cl)c3ccccc23)cnc1C(=O)[C@H]1C[C@@H]1C(=O)O", "Observed Measurement": "> 20 µM"}
{"Compound": "COc1nc(N(CC(C)(C)F)c2cc(Cl)c(F)cc2F)cnc1C(=O)[C@H]1C[C@@H]1C(=O)O [AZD-9898]", "Observed Measurement": "> 30 µM"}

----------
Protocol Details: Octanol/Sodium phosphate buffer partition coefficient, log D of compound at pH 7.4 at 1 mg incubated for overnight under shaking condition by LC-MS/MS analysis
Type: physicochemical

{"Smiles Structure": "CCCN(c1cccc(C(F)(F)F)c1)c1cnc(C(=O)[C@H]2C[C@@H]2C(=O)O)c(OC)c1", "logD": 1.2}
{"Smiles Structure": "COc1cc(N(CC(C)C)c2cccc(C(F)(F)F)c2)cnc1C(=O)[C@H]1C[C@@H]1C(=O)O", "logD": 1.6}
{"Smiles Structure": "COc1cc(N(CC2CC2)c2cc(Cl)ccc2F)cnc1C(=O)[C@H]1C[C@@H]1C(=O)O", "logD": 1.1}
{"Smiles Structure": "COc1cc(N(CC(C)(C)F)c2cccc(C(F)(F)F)c2)cnc1C(=O)[C@H]1C[C@@H]1C(=O)O", "logD": 0.9}

----------
Assayed System: Cytochrome P450 2C19 (Homo sapiens)
Sequence (P33261 whole entry): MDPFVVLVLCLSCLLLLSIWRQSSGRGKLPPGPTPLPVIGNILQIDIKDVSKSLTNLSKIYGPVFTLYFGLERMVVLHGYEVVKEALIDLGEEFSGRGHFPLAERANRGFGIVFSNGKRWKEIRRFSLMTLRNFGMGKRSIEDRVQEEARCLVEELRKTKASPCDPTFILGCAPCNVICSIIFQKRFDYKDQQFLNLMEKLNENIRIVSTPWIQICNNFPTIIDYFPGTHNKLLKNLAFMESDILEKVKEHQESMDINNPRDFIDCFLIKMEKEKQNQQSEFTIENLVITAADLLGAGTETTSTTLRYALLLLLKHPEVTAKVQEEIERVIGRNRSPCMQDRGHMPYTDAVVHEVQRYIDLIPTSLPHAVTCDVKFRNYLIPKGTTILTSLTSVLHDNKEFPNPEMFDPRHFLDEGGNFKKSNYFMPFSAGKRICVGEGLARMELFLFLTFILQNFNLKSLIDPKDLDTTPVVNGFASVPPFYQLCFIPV
Protocol Details: Inhibition of recombinant human CYP2C19 using coumarin based substrate by fluorescence assay
Listed here are molecules together with their documented IC50.

{"Molecule": "COc1nc(N(CC(C)(C)F)c2cc(Cl)c(F)cc2F)cnc1C(=O)[C@H]1C[C@@H]1C(=O)O [AZD-9898]", "IC50": "> 30 µM"}
{"Molecule": "COc1cc(N(CC2CC2)c2ccc(Cl)c3ccccc23)cnc1C(=O)[C@H]1C[C@@H]1C(=O)O", "IC50": "> 20 µM"}

----------
Protocol Details: Octanol/Sodium phosphate buffer partition coefficient, log D of compound at pH 7.4 at 1 mg incubated for overnight under shaking condition by LC-MS/MS analysis
Format: physicochemical
Listed here are molecules together with their documented logD.
Metric: logD

{"Molecule": "COc1nc(N(CC(C)(C)F)c2cc(C(F)(F)F)ccc2F)cnc1C(=O)[C@H]1C[C@@H]1C(=O)O", "Metric": "logD", "Observed Measurement": 1.2}
{"Molecule": "COc1cc(N(CC2CC2)c2ccc(Cl)c(Cl)c2)cnc1C(=O)[C@H]1C[C@@H]1C(=O)O", "Metric": "logD", "Observed Measurement": 1.6}
{"Molecule": "COc1nc(N(CC(C)(C)F)c2cc(Cl)c(F)cc2F)cnc1C(=O)[C@H]1C[C@@H]1C(=O)O [AZD-9898]", "Metric": "logD", "Observed Measurement": 1.1}
{"Molecule": "COc1cc(N(Cc2ccc(F)cc2)c2cccc(C(F)(F)F)c2)cnc1C(=O)[C@H]1C[C@@H]1C(=O)O", "Metric": "logD", "Observed Measurement": 1.9}
{"Molecule": "COc1cc(N(CC2CC2)c2ccc(Cl)c3ccccc23)cnc1C(=O)CCCC(=O)O", "Metric": "logD", "Observed Measurement": 2.8}
{"Molecule": "COc1cc(N(CC(F)(F)F)c2cccc(C(F)(F)F)c2)cnc1C(=O)[C@H]1C[C@@H]1C(=O)O", "Metric": "logD", "Observed Measurement": 1.1}
{"Molecule": "COc1cc(N(CC2CC2)c2cc(Cl)c(F)cc2F)cnc1C(=O)[C@H]1C[C@@H]1C(=O)O", "Metric": "logD", "Observed Measurement": 1.1}
{"Molecule": "COc1cc(N(CC(C)C)c2cc(C(F)(F)F)ccc2F)cnc1C(=O)[C@H]1C[C@@H]1C(=O)O", "Metric": "logD", "Observed Measurement": 1.4}
{"Molecule": "COc1cc(N(CC(C)C)c2ccc(F)c3ccccc23)cnc1C(=O)[C@H]1C[C@@H]1C(=O)O", "Metric": "logD", "Observed Measurement": 2.2}
{"Molecule": "COc1nc(N(CC(C)C)c2cc(Cl)c(F)cc2F)cnc1C(=O)[C@H]1C[C@@H]1C(=O)O", "Metric": "logD", "Observed Measurement": 1.8}
{"Molecule": "COc1cc(N(CC(C)C)c2cc(Cl)c(F)cc2F)cnc1C(=O)[C@H]1C[C@@H]1C(=O)O", "Metric": "logD", "Observed Measurement": 1.3}
{"Molecule": "COc1cc(N(CC2CC2)c2cccc(C(F)(F)F)c2)cnc1C(=O)[C@H]1C[C@@H]1C(=O)O", "Metric": "logD", "Observed Measurement": 1.4}
{"Molecule": "CCN(c1cnc(C(=O)[C@H]2C[C@@H]2C(=O)O)c(OC)c1)c1ccc(F)c2ccccc12", "Metric": "logD", "Observed Measurement": 1.4}
{"Molecule": "COc1cc(N(CC2CC2)c2ccccc2)cnc1C(=O)[C@H]1C[C@@H]1C(=O)O", "Metric": "logD", "Observed Measurement": 0.65}

----------
Protocol Details: Octanol/Sodium phosphate buffer partition coefficient, log D of compound at pH 7.4 at 1 mg incubated for overnight under shaking condition by LC-MS/MS analysis
Type: physicochemical
Respond with Yes for logD values of 1 and above, No for values below.

{"Compound": "COc1cc(N(CC2CC2)c2ccc(Cl)cc2)cnc1C(=O)c1cccc(C(=O)O)c1", "Class Assignment": "Yes"}
{"Compound": "COc1nc(C(=O)[C@@H]2C[C@H]2C(=O)O)ncc1N(CC1CC1)c1ccc(Cl)c2ccccc12 (relative stereo)", "Class Assignment": "Yes"}
{"Compound": "COc1nc(N(CC(C)C)c2cc(C(F)(F)F)ccc2F)cnc1C(=O)[C@H]1C[C@@H]1C(=O)O", "Class Assignment": "Yes"}
{"Compound": "CCN(c1cccc(C(F)(F)F)c1)c1cnc(C(=O)[C@H]2C[C@@H]2C(=O)O)c(OC)c1", "Class Assignment": "No"}
{"Compound": "COc1cc(N(CC2CC2)c2ccc(F)c(Cl)c2)cnc1C(=O)[C@H]1C[C@@H]1C(=O)O", "Class Assignment": "Yes"}

----------
Listed here are compounds together with their documented half-life.
Protocol Details: Effective half life in Han Wistar rat at 0.5 mg/kg, iv or 1 mg/kg, po after 24 hrs
Assay type: ADME, organism-based
Measurement Context: in vivo, read-out: t1/2eff (converted)
Metric: half-life (h)

{"Smiles Structure": "COc1cc(N(CC2CC2)c2ccc(Cl)c3ccccc23)cnc1C(=O)[C@H]1C[C@@H]1C(=O)O", "Metric": "half-life", "Observed Measurement": 2.7}
{"Smiles Structure": "COc1nc(N(CC(C)(C)F)c2cc(Cl)c(F)cc2F)cnc1C(=O)[C@H]1C[C@@H]1C(=O)O", "Metric": "half-life", "Observed Measurement": 26}
